# credit: ChEMBL document CHEMBL1133555

- EXPERIMENTAL_SYSTEM: Norepinephrine transporter (Rattus norvegicus, UniProt Q9WTR4)
- Sequence (Q9WTR4 whole entry): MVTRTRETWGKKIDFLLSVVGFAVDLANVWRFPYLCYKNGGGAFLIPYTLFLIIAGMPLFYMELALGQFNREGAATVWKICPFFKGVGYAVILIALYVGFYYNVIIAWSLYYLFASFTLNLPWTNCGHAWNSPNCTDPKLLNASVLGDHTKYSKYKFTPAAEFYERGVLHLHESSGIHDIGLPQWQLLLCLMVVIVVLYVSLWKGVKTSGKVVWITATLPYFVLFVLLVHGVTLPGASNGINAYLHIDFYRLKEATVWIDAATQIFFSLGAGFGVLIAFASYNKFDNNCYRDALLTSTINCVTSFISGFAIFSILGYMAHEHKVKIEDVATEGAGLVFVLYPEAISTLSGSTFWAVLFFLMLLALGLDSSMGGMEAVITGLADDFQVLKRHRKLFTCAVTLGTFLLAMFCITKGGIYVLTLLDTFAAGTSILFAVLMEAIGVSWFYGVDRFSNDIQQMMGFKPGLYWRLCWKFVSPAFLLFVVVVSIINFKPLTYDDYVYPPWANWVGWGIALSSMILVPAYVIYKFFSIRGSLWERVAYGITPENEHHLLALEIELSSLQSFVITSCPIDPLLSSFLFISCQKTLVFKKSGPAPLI
pKi: −log10 of the molar value.
// False strictly below 7 in pKi; True otherwise

MOLECULE | LABEL
CN[C@@H]1CC(c2ccc(Cl)c(Cl)c2)c2ccc(OC)cc21 (some centres not stated) | True
CN[C@@H]1CC(c2ccc(Cl)c(Cl)c2)c2c(OC)cccc21 (some centres not stated) | True
CN[C@H]1c2cc(OC)ccc2C(c2ccc(Cl)c(Cl)c2)[C@@H]1O (some centres not stated) | False

----------
Record set of Ki for target or system Sodium-dependent dopamine transporter (Rattus norvegicus, UniProt P23977).
MEASURED_ATTRIBUTE: Ki (nM)

MOLECULE | OBSERVED
CN[C@@H]1CC(c2ccc(Cl)c(Cl)c2)c2cc(OC)c(OC)cc21 (some centres not stated) | 3.6
CN[C@H]1c2cc(OC)ccc2C(c2ccc(Cl)c(Cl)c2)[C@@H]1O (some centres not stated) | 1130
CN[C@@H]1CC(c2ccc(Cl)c(Cl)c2)c2c(OC)cccc21 (some centres not stated) | 1.7
CN[C@@H]1CC(c2ccc(Cl)c(Cl)c2)c2cccc(OC)c21 (some centres not stated) | 32
CN[C@@H]1CC(c2ccc(Cl)c(Cl)c2OC)c2ccc(OC)cc21 (some centres not stated) | 788
CN[C@@H]1CC(c2ccc(Cl)c(Cl)c2)c2ccc(OC)cc21 (some centres not stated) | 11.6
CN[C@@H]1CC(c2ccc(Cl)c(Cl)c2)c2cc(OC)ccc21 (some centres not stated) | 9.4

----------
- EXPERIMENTAL_SYSTEM: Sodium-dependent serotonin transporter (Rattus norvegicus, UniProt P31652)
- Sequence (P31652 whole entry): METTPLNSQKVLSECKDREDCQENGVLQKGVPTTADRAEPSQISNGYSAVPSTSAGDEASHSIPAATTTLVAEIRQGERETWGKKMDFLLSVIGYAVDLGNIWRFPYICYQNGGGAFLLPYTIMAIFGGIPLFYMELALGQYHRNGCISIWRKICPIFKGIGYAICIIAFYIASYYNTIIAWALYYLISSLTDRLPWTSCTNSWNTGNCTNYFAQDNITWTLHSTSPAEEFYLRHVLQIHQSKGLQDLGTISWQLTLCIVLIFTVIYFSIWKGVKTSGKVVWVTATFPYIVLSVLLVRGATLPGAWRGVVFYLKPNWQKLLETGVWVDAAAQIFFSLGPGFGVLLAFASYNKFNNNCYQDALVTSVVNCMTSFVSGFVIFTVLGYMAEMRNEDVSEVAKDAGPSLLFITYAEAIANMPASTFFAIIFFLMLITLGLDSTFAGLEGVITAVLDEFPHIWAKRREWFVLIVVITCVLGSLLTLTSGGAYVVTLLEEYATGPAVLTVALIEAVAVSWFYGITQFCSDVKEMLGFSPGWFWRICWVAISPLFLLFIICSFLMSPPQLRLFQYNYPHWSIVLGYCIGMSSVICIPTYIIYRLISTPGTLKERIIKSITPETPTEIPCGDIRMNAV
MEASURED_ATTRIBUTE: log10(Ki) (log10 of the value in nM)

COMPOUND | log10(Ki)
CN[C@@H]1CC(c2ccc(Cl)c(Cl)c2)c2cc(OC)c(OC)cc21 (some centres not stated) | 1.79
CN[C@H]1c2cc(OC)ccc2C(c2ccc(Cl)c(Cl)c2)[C@@H]1O (some centres not stated) | 0.91
CN[C@@H]1CC(c2ccc(Cl)c(Cl)c2)c2cccc(OC)c21 (some centres not stated) | 2.03
CN[C@@H]1CC(c2ccc(Cl)c(Cl)c2OC)c2ccc(OC)cc21 (some centres not stated) | 0.75
CN[C@@H]1CC(c2ccc(Cl)c(Cl)c2)c2c(OC)cccc21 (some centres not stated) | 1.80
CN[C@@H]1CC(c2ccc(Cl)c(Cl)c2)c2ccc(OC)cc21 (some centres not stated) | 0.04
CN[C@@H]1CC(c2ccc(Cl)c(Cl)c2)c2cc(OC)ccc21 (some centres not stated) | 0.81

----------
Recorded measurements of Ki, one per entry
- EXPERIMENTAL_SYSTEM: UniProt:Q9WTR4
- PROCEDURE_TEXT: Binding affinity for norepinephrine transporter (NET) labeled with [3H]nisoxetine
MEASURED_ATTRIBUTE: Ki

COMPOUND | MEASURED_ATTRIBUTE | OBSERVED
CN[C@@H]1CC(c2ccc(Cl)c(Cl)c2OC)c2ccc(OC)cc21 (some centres undefined) | Ki | 122 nM
CN[C@@H]1CC(c2ccc(Cl)c(Cl)c2)c2cc(OC)ccc21 (some centres undefined) | Ki | 76.5 nM
CN[C@@H]1CC(c2ccc(Cl)c(Cl)c2)c2cc(OC)c(OC)cc21 (some centres undefined) | Ki | 102 nM
CN[C@@H]1CC(c2ccc(Cl)c(Cl)c2)c2cccc(OC)c21 (some centres undefined) | Ki | 93 nM
